All values here come from ChEMBL document CHEMBL1134397.

target entity: Chymase (Homo sapiens)
Sequence (P23946 whole entry): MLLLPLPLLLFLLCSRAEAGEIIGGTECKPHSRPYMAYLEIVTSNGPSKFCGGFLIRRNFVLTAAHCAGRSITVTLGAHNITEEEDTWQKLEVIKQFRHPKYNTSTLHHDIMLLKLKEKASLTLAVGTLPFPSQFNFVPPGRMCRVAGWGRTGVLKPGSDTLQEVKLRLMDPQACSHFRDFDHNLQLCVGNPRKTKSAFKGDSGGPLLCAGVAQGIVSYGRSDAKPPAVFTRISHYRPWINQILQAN
procedure summary: Inhibitory activity evaluated against chymase from human heart.
Where a SMILES comes first, the peptide text is derived from it. The star is where a group is joined. CF3 = FC(F)(F)*
# pKi per entry
Value format note: pKi is -log10 of concentration (mol/L); just state the number.

Some compounds with recorded pKi:
In [3]: df
Out[3]:
                                   compound  property   val
0  COC(=O)c1ccc2oc(C(=O)C(Cc3ccccc3)NC(=O)Cn3c(-c4cccc(Cl)c4)ncc(N)c3=O)nc2c1 (centres undefined)       pKi  7.58
1  CC(C)[C@H](N)C(=O)N1CCC[C@H]1C(=O)N[C@@H](Cc1ccccc1)C(=O)C(F)(F)F (H-Val-Pro-Phe-CF3)       pKi  7.09
2  COC(=O)c1ccc2oc(C(=O)C(Cc3ccccc3)NC(=O)Cn3c(-c4cccc(F)c4)ncc(N)c3=O)nc2c1 (centres undefined)       pKi  7.84

Could you now consider this next compound?
(Q) Reported pKi for Chymase (Homo sapiens), given Nc1cnc(-c2ccc(F)cc2)n(CC(=O)NC(Cc2ccccc2)C(=O)c2nc3cc(O)ccc3o2)c1=O (centres undefined) ?
(A) 5.67

###

procedure summary: Steady state volume distribution was determined; steady state(ss)
Assay type: ADME, organism-based
experimental conditions: rat, in vivo
property: Vd
Answer format: number, then unit.

(Q) Which value of Vd has been reported for COC(=O)c1ccc2oc(C(=O)C(Cc3ccccc3)NC(=O)Cn3c(-c4cccc(OC)c4)ncc(N)c3=O)nc2c1 (stereo unspecified) in the records?
(A) 0.469 L/kg

###

procedure summary: Half life was evaluated when a dose of 1 mg/kg was administered intravenously to rats
Format: ADME, organism-based
Set-up: dose 1 mg/kg, route intravenous
experimental conditions: rat, in vivo, iv
property: half-life (h)
Entry rule: numbers only, all in h.

(Q) Which value of half-life has been reported for COC(=O)c1ccc2oc(C(=O)C(Cc3ccccc3)NC(=O)Cn3c(-c4cccc(OC)c4)ncc(N)c3=O)nc2c1 (stereo unspecified) in the records?
(A) 35.7

###

procedure summary: Pharmacokinetic parameter plasma clearance was determined at when a dose of 1 mg/kg is administered
Assay type: ADME, organism-based
Design: dose 1 mg/kg
experimental conditions: rat
property: clearance (mL/min/kg)
Entry rule: numbers only, all in mL/min/kg.

(Q) Which value of clearance has been reported for COC(=O)c1ccc2oc(C(=O)C(Cc3ccccc3)NC(=O)Cn3c(-c4cccc(OC)c4)ncc(N)c3=O)nc2c1 (stereo unspecified) in the records?
(A) 0.168

###

target entity: Chymotrypsinogen A (Bos taurus, UniProt P00766)
Where a SMILES comes first, the peptide text is derived from it. The star is where a group is joined. CF3 = FC(F)(F)*
// classify(record): look up Ki in ranges bin 1: < 70 nM; bin 2: ≥ 70 nM and < 4000 nM; bin 3: ≥ 4000 nM

Field: example entries. Status: answers known.
                                   compound  label_value
0  COC(=O)c1ccc2oc(C(=O)C(Cc3ccccc3)NC(=O)Cn3c(-c4cccnc4)ncc(N)c3=O)nc2c1 (centres undefined)        bin 1
1  COC(=O)c1ccc2oc(C(=O)C(Cc3ccccc3)NC(=O)Cn3c(-c4cccc([N+](=O)[O-])c4)ncc(N)c3=O)nc2c1 (centres undefined)        bin 3
2  CCOC(=O)c1ccc2oc(C(=O)C(Cc3ccccc3)NC(=O)Cn3c(-c4ccc(F)cc4)ncc(N)c3=O)nc2c1 (centres undefined)        bin 2

(Q) Please report the category associated with Nc1cnc(-c2ccc(F)cc2)n(CC(=O)NC(Cc2ccccc2)C(=O)c2nc3cc(F)ccc3o2)c1=O (centres undefined) , nothing else.
(A) bin 1

(Q) One more compound: COC(=O)c1ccc2oc(C(=O)C(Cc3ccccc3)NC(=O)Cn3c(-c4cccc(Cl)c4)ncc(N)c3=O)nc2c1 (centres undefined)
(A) bin 2

(Q) One more compound: COC(=O)c1ccc2oc(C(=O)C(Cc3ccccc3)NC(=O)Cn3c(-c4cccc(OC)c4)ncc(N)c3=O)nc2c1 (centres undefined)
(A) bin 2

(Q) One more compound: CC(C)[C@H](N)C(=O)N1CCC[C@H]1C(=O)N[C@@H](Cc1ccccc1)C(=O)C(F)(F)F (H-Val-Pro-Phe-CF3)
(A) bin 3

(Q) One more compound: COC(=O)c1ccc2oc(C(=O)C(Cc3ccccc3)NC(=O)Cn3c(-c4ccncc4)ncc(N)c3=O)nc2c1 (centres undefined)
(A) bin 2
